Taken from PubChem BioAssay AID1919004.

Measured viability, T/C, listed per entry for reference.
# Tested on: 883617-216-R-J1-PDC complex spheroids, growth, % test/control
# method: Anticancer human tumor 883617-216-R-J1-PDC patient-derived bladder carcinoma cell line growth inhibition [AhR]
# conditionLabel: second compound 1 µM; first compound 0.316 µM; stronger effect = lower value
Kindly answer with a numeric value in %, unit omitted.

COc1cc(Nc2ncc3c(n2)-c2ccc(Cl)cc2C(c2c(F)cccc2OC)=NC3)ccc1C(=O)O + Cc1ccccc1N=Nc1ccc(NC(=O)c2ccnn2C)c(C)c1    67.2
O=C(C=Cc1cccc(S(=O)(=O)Nc2ccccc2)c1)NO + CC(CO)NC(=O)c1cc(-c2ccc(Cl)cc2)nn(-c2cnn(C)c2)c1=O    113
CC(C)c1c(-c2ccccc2)nc2c(C#N)c[nH]n2c1=O + Cc1cncc(-c2nc(NCCc3c[nH]c4ccccc34)c3ncn(C(C)C)c3n2)c1    107

QUERY: # input compound: CC1(C)CCC(CN2CCN(c3ccc(C(=O)NS(=O)(=O)c4ccc(NCC5CCOCC5)c([N+](=O)[O-])c4)c(Oc4cnc5[nH]ccc5c4)c3)CC2)=C(c2ccc(Cl)cc2)C1 + Cc1ccccc1N=Nc1ccc(NC(=O)c2ccnn2C)c(C)c1 ; wanted: its viability, T/C
RESULT: 82.5

QUERY: What would you report for O=C(c1cc(Cc2n[nH]c(=O)c3ccccc23)ccc1F)N1CCN(C(=O)C2CC2)CC1 + Cc1ccccc1N=Nc1ccc(NC(=O)c2ccnn2C)c(C)c1 ?
RESULT: 87.2

QUERY: Also check CC(C)c1c(-c2ccccc2)nc2c(C#N)c[nH]n2c1=O + CC(CO)NC(=O)c1cc(-c2ccc(Cl)cc2)nn(-c2cnn(C)c2)c1=O
RESULT: 103

====

# Tested on: 883617-216-R-J1-PDC complex spheroids, growth, % test/control
# method: Anticancer human tumor 883617-216-R-J1-PDC cell line growth inhibition [AhR];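 note: exposure lasted 7 days after dosing on day 3 of spheroid growth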
# conditionLabel: second compound 1 µM; first compound 0.000316 µM; stronger effect = lower value
observationType: viability, T/C (%)
Answer with a number only, understood to be in %.

CC[C@@]1(O)C(=O)OCc2c1cc1n(c2=O)Cc2cc3c(CN(C)C)c(O)ccc3nc2-1 + Cc1cncc(-c2nc(NCCc3c[nH]c4ccccc34)c3ncn(C(C)C)c3n2)c1    93.5

QUERY: Form field: reported viability, T/C of Cn1ncnc1C1c2n[nH]c(=O)c3cc(F)cc(c23)NC1c1ccc(F)cc1 (stereo unspecified) + Cc1cncc(-c2nc(NCCc3c[nH]c4ccccc34)c3ncn(C(C)C)c3n2)c1
RESULT: 100

QUERY: Okay, and Cn1ncnc1C1c2n[nH]c(=O)c3cc(F)cc(c23)NC1c1ccc(F)cc1 (stereo unspecified) + CC(CO)NC(=O)c1cc(-c2ccc(Cl)cc2)nn(-c2cnn(C)c2)c1=O ?
RESULT: 59.7

QUERY: For CC[C@@]1(O)C(=O)OCc2c1cc1n(c2=O)Cc2cc3c(CN(C)C)c(O)ccc3nc2-1 + Cc1ccccc1N=Nc1ccc(NC(=O)c2ccnn2C)c(C)c1 then?
RESULT: 82.5

QUERY: Quick one: CC[C@@]1(O)C(=O)OCc2c1cc1n(c2=O)Cc2cc3c(CN(C)C)c(O)ccc3nc2-1 + CC(CO)NC(=O)c1cc(-c2ccc(Cl)cc2)nn(-c2cnn(C)c2)c1=O
RESULT: 81.3

QUERY: Further, for Cn1ncnc1C1c2n[nH]c(=O)c3cc(F)cc(c23)NC1c1ccc(F)cc1 (stereo unspecified) + Cc1ccccc1N=Nc1ccc(NC(=O)c2ccnn2C)c(C)c1 ?
RESULT: 87.5

====

# Test system: 883617-216-R-J1-PDC complex spheroids, growth, % test/control
# method: Anticancer human tumor 883617-216-R-J1-PDC cell line growth inhibition [AhR];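 note: exposure lasted 7 days after dosing on day 3 of spheroid growth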
# conditionLabel: second compound 10 µM; first compound 3.16 µM; stronger effect = lower value
Listed here: items and their measured viability, T/C.
# number only, unit % dropped from output

QUERY: Consider the compound CC(C)c1c(-c2ccccc2)nc2c(C#N)c[nH]n2c1=O + Cc1cncc(-c2nc(NCCc3c[nH]c4ccccc34)c3ncn(C(C)C)c3n2)c1 and give its measured viability, T/C.
RESULT: 43.5

QUERY: O=C(C=Cc1cccc(S(=O)(=O)Nc2ccccc2)c1)NO + CC(CO)NC(=O)c1cc(-c2ccc(Cl)cc2)nn(-c2cnn(C)c2)c1=O , same question.
RESULT: 40.9

QUERY: What do we get for CC(C)c1c(-c2ccccc2)nc2c(C#N)c[nH]n2c1=O + CC(CO)NC(=O)c1cc(-c2ccc(Cl)cc2)nn(-c2cnn(C)c2)c1=O ?
RESULT: 64

====

# Tested on: 883617-216-R-J1-PDC complex spheroids, growth, % test/control
# method: Anticancer human tumor 883617-216-R-J1-PDC cell line growth inhibition [AhR]; active = viability on the fitted dose curve at most 10% of control; inactive = the rest;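 note: exposure lasted 7 days after dosing on day 3 of spheroid growth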
# conditionLabel: second compound 10 µM; first compound 0.3 µM
The reply should name one outcome from 1 for active, -1 for inactive

QUERY: Write down the call the test reported for this compound. Item: CC(C)CC(NC(=O)C(Cc1ccccc1)NC(=O)c1cnccn1)B(O)O (stereo unspecified) + Cc1cncc(-c2nc(NCCc3c[nH]c4ccccc34)c3ncn(C(C)C)c3n2)c1
RESULT: 1

QUERY: Queued: CC(C)CC(NC(=O)C(Cc1ccccc1)NC(=O)c1cnccn1)B(O)O (stereo unspecified) + Cc1ccccc1N=Nc1ccc(NC(=O)c2ccnn2C)c(C)c1
RESULT: 1

QUERY: Moving on to the next compound: CCN(c1cc(-c2ccc(CN3CCOCC3)cc2)cc(C(=O)NCc2c(C)cc(C)[nH]c2=O)c1C)C1CCOCC1 + Cc1ccccc1N=Nc1ccc(NC(=O)c2ccnn2C)c(C)c1
RESULT: -1

QUERY: What about this compound? CCc1c2c(nc3ccc(O)cc13)-c1cc3c(c(=O)n1C2)COC(=O)[C@]3(O)CC + Cc1cncc(-c2nc(NCCc3c[nH]c4ccccc34)c3ncn(C(C)C)c3n2)c1
RESULT: -1

QUERY: Same read-out for O=C(C=Cn1cnc(-c2cc(C(F)(F)F)cc(C(F)(F)F)c2)n1)NNc1cnccn1 + Cc1cncc(-c2nc(NCCc3c[nH]c4ccccc34)c3ncn(C(C)C)c3n2)c1 ?
RESULT: -1

QUERY: Item: O=C(C=Cn1cnc(-c2cc(C(F)(F)F)cc(C(F)(F)F)c2)n1)NNc1cnccn1 + CC(CO)NC(=O)c1cc(-c2ccc(Cl)cc2)nn(-c2cnn(C)c2)c1=O
RESULT: -1

====

viability, T/C for assorted compounds
# System: 883617-216-R-J1-PDC complex spheroids, growth, % test/control
# method: Anticancer human tumor 883617-216-R-J1-PDC cell line growth inhibition [AhR];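 note: exposure lasted 7 days after dosing on day 3 of spheroid growth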
# conditionLabel: second compound 1 µM; first compound 0.316 µM; stronger effect = lower value
Give a bare numeral; the unit % is implied.

Some solved cases for reference:
COc1cc(C2c3cc4c(cc3C(OC3OC5COC(C)OC5C(O)C3O)C3COC(=O)C23)OCO4)cc(OC)c1O (stereo not drawn) + CC(CO)NC(=O)c1cc(-c2ccc(Cl)cc2)nn(-c2cnn(C)c2)c1=O    90
Nc1ncn(C2CC(O)C(CO)O2)c(=O)n1 (stereo not drawn) + CC(CO)NC(=O)c1cc(-c2ccc(Cl)cc2)nn(-c2cnn(C)c2)c1=O    75.1

QUERY: # query: viability, T/C | item COc1cc(C2c3cc4c(cc3C(OC3OC5COC(C)OC5C(O)C3O)C3COC(=O)C23)OCO4)cc(OC)c1O (stereo not drawn) + Cc1cncc(-c2nc(NCCc3c[nH]c4ccccc34)c3ncn(C(C)C)c3n2)c1 | system: 883617-216-R-J1-PDC complex spheroids, growth, % test/control
RESULT: 78.7

====

# System: 883617-216-R-J1-PDC complex spheroids, growth, % test/control
# method: Anticancer human tumor 883617-216-R-J1-PDC cell line growth inhibition [AhR];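 note: exposure lasted 7 days after dosing on day 3 of spheroid growth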
# conditionLabel: second compound 0.316 µM; first compound 0.0949 µM; stronger effect = lower value
Label key: Fulfilled means viability, T/C under 70%; Not fulfilled means viability, T/C of 70% or more.

O=C(C=Cn1cnc(-c2cc(C(F)(F)F)cc(C(F)(F)F)c2)n1)NNc1cnccn1 + Cc1cncc(-c2nc(NCCc3c[nH]c4ccccc34)c3ncn(C(C)C)c3n2)c1    Not fulfilled
CC(C)CC(NC(=O)C(Cc1ccccc1)NC(=O)c1cnccn1)B(O)O (stereo unspecified) + Cc1cncc(-c2nc(NCCc3c[nH]c4ccccc34)c3ncn(C(C)C)c3n2)c1    Fulfilled
CCc1c2c(nc3ccc(O)cc13)-c1cc3c(c(=O)n1C2)COC(=O)[C@]3(O)CC + Cc1cncc(-c2nc(NCCc3c[nH]c4ccccc34)c3ncn(C(C)C)c3n2)c1    Fulfilled
O=C(C=Cn1cnc(-c2cc(C(F)(F)F)cc(C(F)(F)F)c2)n1)NNc1cnccn1 + Cc1ccccc1N=Nc1ccc(NC(=O)c2ccnn2C)c(C)c1    Fulfilled

QUERY: Report whether reported viability, T/C is lower than 70% (strictly) for Nc1ncn(C2CC(O)C(CO)S2)c(=O)n1 (stereo unspecified) + Cc1ccccc1N=Nc1ccc(NC(=O)c2ccnn2C)c(C)c1
RESULT: Not fulfilled
